tested on: TK-10 renal; test: NCI tumour cell line growth inhibition, 48 h
Measurement Kind: TGI

INSERT INTO measurements (compound, recorded_measurement) VALUES
  ('N#Cc1ccc(Oc2nc3ccc(C(F)(F)F)cc3nc2-c2ccccc2)cc1', '33.6 µM'),
  ('COC(=O)C1C(OCc2ccccc2)C2CCC1(OC)C=C2C (stereo not given)', '> 100 µM'),
  ('O=C1c2ccccc2C(=O)c2c(O)ccc(O)c21', '> 100 µM'),
  ('COC1=C(Br)C(=O)C2=C(C1=O)C1C3=C(C(=O)C=CC3=O)C2c2ccccc21 (stereo not given)', '43.5 µM'),
  ('CC1(CC2=C(C(=O)NCCO[Si](C)(C)C(C)(C)C)C3(OCCO3)C2=O)OCCO1', '> 100 µM');

* * *

tested on: MDA-MB-435
*1 amine or outer side, *2 acyl side, *3 side chain or, on linkers, in order; H or OH if unused. Where a SMILES comes first, the peptide text is derived from it. [ ]: non-standard residue; d: D form. ξ: configuration not given here. X21 = CC[C@@H](C)C(N[*:1])C(=O)[*:2]; ξR = N=C(N)NCCCC(N)C(=O)O; ξI = CCC(C)C(N)C(=O)O; ξL = CC(C)CC(N)C(=O)O; ξK = NCCCCC(N)C(=O)O; ξV = CC(C)C(N)C(=O)O; ξA = CC(N)C(=O)O
Classes used: Y for active, N for inactive

INSERT INTO measurements (molecule, assigned_class) VALUES
  ('CC(C)Nc1ncc2cc(Oc3ccc(F)cc3F)c(=O)n(C)c2n1', 'N'),
  ('Fc1ccc2[nH]cc(SSc3c[nH]c4ccc(F)cc34)c2c1', 'N'),
  ('N#C/C(=C\c1ccc(Br)cc1)n1nnc2ccccc21', 'Y'),
  ('CCC(C)C1NC(=O)C(CC(C)C)NC(=O)C(C)NC(=O)C(C(C)C)NC(=O)C(CCCCN)NC(=O)C(CC(C)C)NC(=O)C(C(C)C)NC(=O)[C@H](C)NC(=O)C(C(C)CC)NC(=O)C(CCCN=C(N)N)NC(=O)C(CCCCN)NC(=O)C(CCCN=C(N)N)NC(=O)C(CCCCN)NC(=O)C([C@H](C)CC)NC(=O)C(CCCCN)NC1=O (stereo not given in full) (cyclo(A[ξV][ξL][ξK][ξV][ξA][ξL][ξI][ξK][X21][ξK][ξR][ξK][ξR][ξI]))', 'N'),
  ('COc1ccc2c(c1)/C(=N/OC(C)=O)c1c-2c(=O)[nH]c2ccccc12', 'N'),
  ('NC(=O)c1ccc2nc3c(n2c1)C(=O)C(=O)c1ccccc1-3', 'Y'),
  ('COc1ccc(-c2csc(NC(=O)c3cc(O)c(O)c(O)c3)n2)cc1', 'N'),
  ('O=C1CS/C(=N\S(=O)(=O)c2ccc(N3N=C4c5ccccc5CC4C3c3ccc(Cl)cc3)cc2)N1c1ccccc1 (stereo not given)', 'N'),
  ('O=C(Nc1cccc(-n2cc(-c3ccncc3)c(-c3ccc(O)c(Cl)c3)n2)c1)Nc1cccc(C(F)(F)F)c1', 'N'),
  ('CN(C)CCCn1c2nc(=O)[nH]c(=O)c-2nc2cc(Cl)c(Cl)cc21', 'N');

* * *

test system: MCF7 breast; assay: NCI tumour cell line growth inhibition, 48 h
TGI by entry:
Measurement Kind: TGI (µM)

INSERT INTO measurements (molecule, measurement_kind, relation, recorded_measurement) VALUES
  ('COc1ccc(N(C)c2c3ccccc3nc3[nH]c4ccccc4c23)cc1', 'TGI', '=', 0.655),
  ('O=[N+]([O-])c1ccc(Cl)cc1N/N=C/c1cccc2cccnc12', 'TGI', '>', 100),
  ('CCN1CCC(O)(c2ccc(Oc3ccc(C)cc3)cc2)C(C(=O)c2ccc(Oc3ccc(C)cc3)cc2)C1 (stereo not drawn)', 'TGI', '=', 8.41),
  ('Cc1c(N=Cc2ccc(N(CCC#N)CCC#N)cc2)c(=O)n(-c2ccccc2)n1C', 'TGI', '>', 100),
  ('C=C1C(=O)O[C@@H]2[C@H](O)[C@@H](C)[C@@H]3C=CC(=O)[C@@]3(C)[C@H](OC(=O)C=C(C)C)[C@H]12', 'TGI', '=', 1.81),
  ('N#C/C(=C\c1ccc(Br)cc1)n1nnc2ccccc21', 'TGI', '=', 6.2),
  ('COc1ccccc1/C=C/C(=O)/C=C/c1ccccc1OC', 'TGI', '=', 3.81),
  ('NC1CC(=O)c2sccc21 (stereo not drawn)', 'TGI', '>', 100);
